# tested-system: LecA (Pseudomonas aeruginosa)
# Sequence (Q05097 2-122 limits assumed): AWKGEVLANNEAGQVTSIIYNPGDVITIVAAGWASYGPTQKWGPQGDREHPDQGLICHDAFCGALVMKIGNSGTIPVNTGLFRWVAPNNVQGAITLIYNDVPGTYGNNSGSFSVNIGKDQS
# assay-explanation: surface plasmon resonance
measurement-label: Kd
Could you write the number and then its unit?

Request: Lab note: LecA (Pseudomonas aeruginosa) assay, enter Kd for N#Cc1cccc(O)c1O [Compound 3, 3‐cyano catechol] here
Result: 1110 µM

* * *

# tested-system: LecA (Pseudomonas aeruginosa, UniProt Q05097)
# assay-explanation: thermal shift assay
# Type: binding
# condition-set: change of LecA melting point, 4 mM test compound, average of two experiments
measurement-label: TSA ΔT [K]

Request: Indicate the recorded TSA ΔT [K] value for this compound: O=C(c1ccccc1)c1ccc(O)c(O)c1
Result: +0.36 K

Request: Indicate the recorded TSA ΔT [K] value for this compound: CC(C)C(=O)c1ccc(O)c(O)c1
Result: +0.35 K

Request: Indicate the recorded TSA ΔT [K] value for this compound: N#Cc1cccc(O)c1O
Result: +1.8 K
